Reported Kd values are given for each entry in this list.
Molecular target: PfCRT^Dd2 (Plasmodium falciparum, UniProt Q8IBZ9, A220S/I356T/K76T/M74I/N326S/N75E/Q271E/R371I)
Sequence (Q8IBZ9 1-424 M74I/N75E/K76T/A220S/Q271E/N326S/I356T/R371I): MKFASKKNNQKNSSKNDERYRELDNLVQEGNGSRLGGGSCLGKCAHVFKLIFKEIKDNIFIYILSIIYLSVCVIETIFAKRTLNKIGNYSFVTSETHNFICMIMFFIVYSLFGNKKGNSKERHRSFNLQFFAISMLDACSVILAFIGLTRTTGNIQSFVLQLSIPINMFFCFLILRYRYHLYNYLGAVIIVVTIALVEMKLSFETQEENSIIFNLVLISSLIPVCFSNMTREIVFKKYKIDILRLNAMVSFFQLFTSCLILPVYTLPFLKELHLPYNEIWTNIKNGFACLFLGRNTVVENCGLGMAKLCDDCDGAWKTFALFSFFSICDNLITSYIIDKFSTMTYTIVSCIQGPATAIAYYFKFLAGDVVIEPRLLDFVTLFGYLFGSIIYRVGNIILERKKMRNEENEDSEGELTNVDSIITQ
Assay: Competition kinetics of drug transport (radiolabeled substrate plus cold inhibitor), PfCRT^Dd2-expressing oocytes
Format: cell-based
Set-up: expressed in transfected cells; host or cells: Xenopus laevis oocytes injected with in vitro transcribed RNA (pSP64T)
Settings: Mixed (Partial) model; drug as radiolabeled substrate; read-out: KS, dissociation constant for the PfCRT-substrate complex
Give just the number in µM; leave the unit off.

[
  {
    "molecule": "CCN(CC)CCCC(C)Nc1ccnc2cc(Cl)ccc12 (centres unmarked)",
    "unit of measure": "µM",
    "Kd": 260
  }
]

Next item in the queue.
Param item = Clc1ccc2c(N3CCN(CCCN4CCN(c5ccnc6cc(Cl)ccc56)CC4)CC3)ccnc2c1 ; retrieve measured Kd. 125

* * *

target: PfCRT^Dd2_F145I (Plasmodium falciparum, UniProt Q8IBZ9, A220S/F145I/I356T/K76T/M74I/N326S/N75E/Q271E/R371I); construct: expressed in transfected cells; host or cells: Xenopus laevis oocytes injected with in vitro transcribed RNA (pSP64T); test: Competition kinetics of drug transport (radiolabeled substrate plus cold inhibitor), PfCRT^Dd2_F145I-expressing oocytes; assay type: cell-based; settings: Mixed (Partial) model; drug as cold inhibitor; read-out: KS, dissociation constant for the PfCRT-substrate complex
observed property: Kd
Your answer should be a number followed by the unit of measure.

[
  {
    "compound": "CCN(CC)CCCC(C)Nc1ccnc2cc(Cl)ccc12 (centres unmarked) [CQ, chloroquine]",
    "Kd": "200 µM"
  }
]

Next item in the queue.
Param item = Clc1ccc2c(N3CCN(CCCN4CCN(c5ccnc6cc(Cl)ccc56)CC4)CC3)ccnc2c1 [PPQ, piperaquine] ; retrieve measured Kd. 160 µM

* * *

molecular target: PfCRT^Dd2 (Plasmodium falciparum, UniProt Q8IBZ9, A220S/I356T/K76T/M74I/N326S/N75E/Q271E/R371I); experiment: Competition kinetics of drug transport (radiolabeled substrate plus cold inhibitor), PfCRT^Dd2-expressing oocytes; type: cell-based; design: expressed in transfected cells; host or cells: Xenopus laevis oocytes injected with in vitro transcribed RNA (pSP64T); details: secondary plot, half-maximum inhibitory concentration of Vmax,app versus inhibitor concentration; read-out: αKS, dissociation constant between the drug and the PfCRT complex with the other drug
Reported Kd values are given for each entry in this list.
Give just the number in µM; leave the unit off.

[
  {
    "molecule": "CCN(CC)CCCC(C)Nc1ccnc2cc(Cl)ccc12 (centres unmarked)",
    "Kd [µM]": 220
  }
]

Next item in the queue.
Param item = Clc1ccc2c(N3CCN(CCCN4CCN(c5ccnc6cc(Cl)ccc56)CC4)CC3)ccnc2c1 ; retrieve measured Kd. 205

* * *

biological target: PfCRT^Dd2_F145I (Plasmodium falciparum, UniProt Q8IBZ9, A220S/F145I/I356T/K76T/M74I/N326S/N75E/Q271E/R371I); construct: expressed in transfected cells; host or cells: Xenopus laevis oocytes injected with in vitro transcribed RNA (pSP64T); assay: Competition kinetics of drug transport (radiolabeled substrate plus cold inhibitor), PfCRT^Dd2_F145I-expressing oocytes; format: cell-based; conditions: secondary plot, half-maximal inhibitory concentration of Vmax,app/KM,app versus inhibitor concentration; read-out: KS, dissociation constant between the drug and PfCRT
Reported pKd values are given for each entry in this list.
Value format note: pKd is -log10 of concentration (mol/L); just state the number.

[
  {
    "compound": "CCN(CC)CCCC(C)Nc1ccnc2cc(Cl)ccc12 (centres unmarked) [CQ, chloroquine]",
    "pKd": 3.60
  }
]

Param item = Clc1ccc2c(N3CCN(CCCN4CCN(c5ccnc6cc(Cl)ccc56)CC4)CC3)ccnc2c1 [PPQ, piperaquine] ; retrieve measured pKd. 3.77

Reference source: paper PMC10281575
